System: CCRIS mutagenicity, Ames/micronucleus/aberration tests
Assay: CCRIS mutagenicity studies
Settings: Test System: AMES SALMONELLA TYPHIMURIUM; Strain/Indicator: TA102; Metabolic Activation: RAT, LIVER, S-9, AROCLOR 1254; Method: STANDARD PLATE
The source made the active and inactive calls. No rule for the calls is given here.
Hello, when you answer, please use one of the following outcomes: label 1 = active, label 0 = inactive

The examples below pair each entry with its known result.
IN: Record request — test call for O=C1CNC(=O)N1
OUT: label 0

IN: Record request — test call for CC1=CC(=C(C#N)C#N)C=C(C=Cc2ccc(N(C)C)cc2)O1
OUT: label 1

IN: Record request — test call for NCCc1cnc[nH]1
OUT: label 0

IN: Record request — test call for F
OUT: label 0

IN: Record request — test call for Clc1cccc(Cl)n1
OUT: label 0

IN: Record request — test call for CCOCC(=O)O
OUT: label 0

IN: Record request — test call for CC1(C)CC[C@]2(C(=O)O)CC[C@]3(C)C(=CC[C@@H]4[C@@]5(C)C[C@H](O)[C@H](O[C@@H]6O[C@H](CO)[C@@H](O)[C@H](O)[C@H]6O)C(C)(C(=O)O)C5CC[C@]43C)[C@H]2C1 (some centres undefined)
OUT: label 0

IN: Record request — test call for Clc1cccnc1
OUT: label 0

Now for a further compound.
IN: Record request — test call for COC1=CC(=O)c2nc(C)c3c([nH]c4ccccc43)c2C1=O
OUT: label 0

----------
Tested on: CCRIS mutagenicity, Ames/micronucleus/aberration tests
Assay: CCRIS mutagenicity studies
Conditions: Test System: AMES SALMONELLA TYPHIMURIUM; Strain/Indicator: TA1537; Metabolic Activation: RAT LIVER S-9, AROCLOR 1254; Method: FLUCTUATION (MICROTITER)
Activity calls are given as the source filed them. No rule for the calls is given here.
Hello, when you answer, please use one of the following outcomes: active, inactive

IN: Record request — test call for Oc1cccc2cccnc12
OUT: active

IN: Record request — test call for O=Cc1ccccc1
OUT: inactive

IN: Record request — test call for CC(O)CCl (centres undefined)
OUT: inactive

Further cases:
IN: Record request — test call for Oc1ccccc1
OUT: inactive

----------
Tested on: CCRIS mutagenicity, Ames/micronucleus/aberration tests
Assay: CCRIS mutagenicity studies
Details: Test System: AMES SALMONELLA TYPHIMURIUM; Strain/Indicator: TA98; Metabolic Activation: RAT, LIVER, S-9, AROCLOR 1254 (10%); Method: PREINCUBATION
Active and inactive are the calls of the source. The rule behind the calls is not given here.
Hello, when you answer, please use one of the following outcomes: True = active, False = inactive

The examples below pair each entry with its known result.
IN: Record request — test call for C1=C\CC/C=C\CC/1.C1=C\CC/C=C\CC/1.[Ni]
OUT: False

IN: Record request — test call for CC(=O)Nc1ccccc1N
OUT: True

IN: Record request — test call for CCCCCCCCOP(=O)(OCCCCCCCC)OCCCCCCCC
OUT: False

Further cases:
IN: Record request — test call for CC(C)CNCC(C)C
OUT: False

IN: Record request — test call for CCN(C(=O)N(CC)c1ccccc1)c1ccccc1
OUT: False

IN: Record request — test call for O=[N+]([O-])c1cccc(O)c1
OUT: False

IN: Record request — test call for O=Cc1ccccc1
OUT: False

IN: Record request — test call for F
OUT: False
